- Assay remarks: Drug level in myocardium of beagle dog treated with [14C]casopitant mesylate at 40 mg/kg/day, po administered as repeat dose measured after 26 weeks by HPLC-MS/MS method
- Type: ADME, organism-based, Canis lupus familiaris
- Parameters: dosed compound name [14C]Casopitant, route oral
- Measurement setup: in vivo, 4368 h
Readout type: Compound recovery
Please report the result as a number followed by the unit.

Some entries whose results are on file:
Compound: CC(=O)N1CCN([C@H]2CCN(C(=O)N(C)[C@H](C)c3cc(C(F)(F)F)cc(C(F)(F)F)c3)[C@@H](c3ccc(F)cc3C)C2)CC1O (some centres undefined)
Result: 3686 ng/g

Compound: Cc1cc(F)ccc1[C@H]1C[C@@H](N2CCNCC2)CCN1C(=O)N(C)[C@H](C)c1cc(C(F)(F)F)cc(C(F)(F)F)c1
Result: 11346 ng/g

Compound: Cc1cc(F)ccc1[C@H]1C[C@@H](N2CCNC(=O)C2)CCN1C(=O)N(C)[C@H](C)c1cc(C(F)(F)F)cc(C(F)(F)F)c1
Result: 2416 ng/g

Entry `Cc1cc(F)ccc1[C@H]1C[C@@H](N)CCN1C(=O)N(C)[C@H](C)c1cc(C(F)(F)F)cc(C(F)(F)F)c1` needs its Compound recovery filled in; supply it. 58640 ng/g

---

- Assay remarks: Drug level in myocardium of beagle dog treated with [14C]casopitant mesylate at 40 mg/kg/day, po administered as repeat dose measured after 20 weeks by HPLC-MS/MS method
- Assay type: ADME, organism-based, Canis lupus familiaris
- Design: dosed compound name [14C]Casopitant, route oral
- Measurement setup: in vivo, 3360 h
Binary label based on Compound recovery with cut-off 10000 ng/g: below gives condition met, not below gives condition not met.

Compound: Cc1cc(F)ccc1[C@H]1C[C@@H](N2CCNCC2)CCN1C(=O)N(C)[C@H](C)c1cc(C(F)(F)F)cc(C(F)(F)F)c1
Label: condition not met
//
Compound: CC(=O)N1CCN([C@H]2CCN(C(=O)N(C)[C@H](C)c3cc(C(F)(F)F)cc(C(F)(F)F)c3)[C@@H](c3ccc(F)cc3C)C2)CC1.CS(=O)(=O)O [CASOPITANT MESYLATE]
Label: condition met

Is the reported Compound recovery for CC(=O)N1CCN([C@H]2CCN(C(=O)N(C)[C@H](C)c3cc(C(F)(F)F)cc(C(F)(F)F)c3)[C@@H](c3ccc(F)cc3C)C2)CC1O (some centres not stated) strictly below 10000 ng/g? condition met

Is the reported Compound recovery for `Cc1cc(F)ccc1[C@H]1C[C@@H](NCCN)CCN1C(=O)N(C)[C@H](C)c1cc(C(F)(F)F)cc(C(F)(F)F)c1` strictly below 10000 ng/g? condition not met

Is the reported Compound recovery for `Cc1cc(F)ccc1[C@H]1C[C@@H](N2CCNC(=O)C2)CCN1C(=O)N(C)[C@H](C)c1cc(C(F)(F)F)cc(C(F)(F)F)c1` strictly below 10000 ng/g? condition met

Is the reported Compound recovery for `Cc1cc(F)ccc1[C@H]1C[C@@H](N)CCN1C(=O)N(C)[C@H](C)c1cc(C(F)(F)F)cc(C(F)(F)F)c1` strictly below 10000 ng/g? condition not met

Is the reported Compound recovery for `CC(=O)NCCN[C@H]1CCN(C(=O)N(C)[C@H](C)c2cc(C(F)(F)F)cc(C(F)(F)F)c2)[C@@H](c2ccc(F)cc2C)C1` strictly below 10000 ng/g? condition met
